Target: ENPP1 (Homo sapiens, UniProt P22413)
Sequence (P22413 whole entry): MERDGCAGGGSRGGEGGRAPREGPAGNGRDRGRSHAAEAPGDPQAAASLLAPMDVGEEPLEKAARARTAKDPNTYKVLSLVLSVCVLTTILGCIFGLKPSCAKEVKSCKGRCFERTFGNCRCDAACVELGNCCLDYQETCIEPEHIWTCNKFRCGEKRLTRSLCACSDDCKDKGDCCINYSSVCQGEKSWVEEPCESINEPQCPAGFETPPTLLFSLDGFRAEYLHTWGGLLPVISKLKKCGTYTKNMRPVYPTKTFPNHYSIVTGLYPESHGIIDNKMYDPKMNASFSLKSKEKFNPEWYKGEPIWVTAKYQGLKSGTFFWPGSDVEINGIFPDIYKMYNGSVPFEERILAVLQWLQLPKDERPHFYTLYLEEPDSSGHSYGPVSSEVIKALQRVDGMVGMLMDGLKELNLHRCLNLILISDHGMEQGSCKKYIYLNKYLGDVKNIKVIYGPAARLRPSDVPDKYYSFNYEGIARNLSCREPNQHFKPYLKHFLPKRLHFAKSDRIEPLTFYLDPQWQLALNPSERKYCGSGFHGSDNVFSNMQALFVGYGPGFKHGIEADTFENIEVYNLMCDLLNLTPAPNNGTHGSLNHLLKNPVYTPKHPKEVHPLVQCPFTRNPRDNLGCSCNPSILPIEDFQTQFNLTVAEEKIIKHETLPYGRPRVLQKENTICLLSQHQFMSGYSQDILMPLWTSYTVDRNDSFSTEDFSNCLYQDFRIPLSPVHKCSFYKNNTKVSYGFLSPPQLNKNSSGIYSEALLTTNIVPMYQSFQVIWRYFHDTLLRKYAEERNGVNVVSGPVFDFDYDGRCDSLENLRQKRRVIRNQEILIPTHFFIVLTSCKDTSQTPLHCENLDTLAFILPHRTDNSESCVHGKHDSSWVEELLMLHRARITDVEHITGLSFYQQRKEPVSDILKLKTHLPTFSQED
Test: ENPP1 enzyme assay with AMP-pNP substrate (hydrolysis of ATP analog)
Type: biochemical
Conditions: AMP-pNP substrate (ATP analog); Ki from IC50 by Cheng-Prusoff; read-out: ENPP1 Inhibition _AMP-pNP: Ki
readout label: Ki

Query :: Fill in: Ki of COc1ccc2c(Nc3ccc(NS(N)(=O)=O)cc3)ccnc2c1F is ___
Result :: 100 to 1000 nM

Query :: Fill in: Ki of COc1cc2nccc(N3CCC(CCNS(N)(=O)=O)CC3)c2cc1F is ___
Result :: 100 to 1000 nM

Query :: Fill in: Ki of COc1cc2ncnc(NC(C)c3ccc(NS(N)(=O)=O)cc3)c2cc1OC (stereo in doubt) [Example 254] is ___
Result :: > 1000 nM

Query :: Fill in: Ki of COc1cc2ncnc(NCc3ccc(NS(N)(=O)=O)cc3)c2cc1OC is ___
Result :: 100 to 1000 nM

Query :: Fill in: Ki of COc1cc2ncc(C(N)=O)c(N3CCC(CCNS(N)(=O)=O)CC3)c2cc1OC is ___
Result :: > 1000 nM

Query :: Fill in: Ki of COc1cc2ncn(-c3ccc(CNS(N)(=O)=O)cc3)c2cc1OC is ___
Result :: > 1000 nM

Query :: Fill in: Ki of COc1cc2nccc(-c3ccc(CNS(N)(=O)=O)c(F)c3)c2cc1OC is ___
Result :: < 100 nM

Query :: Fill in: Ki of COc1cc2ncnc(-c3ccc(CNS(N)(=O)=O)c(F)c3)c2cc1OC is ___
Result :: 100 to 1000 nM

Query :: Fill in: Ki of COc1ccc2nccc(N3CCC4(CC3)CCN(S(N)(=O)=O)C4)c2c1 is ___
Result :: 100 to 1000 nM
